biological target: SMARCA4 (Homo sapiens); construct: SMARCA2 and SMARCA4 protein degradation in MV4-11 cells; endogenous in cells; host or cells: MV4-11; assay: SMARCA4 Western blot MV4-11 degradation; format: cell-based; conditions: MV4-11 cells, 24 h, read-out: SMARCA4 WB MV411 degradation 24 h: Average external-Abs DC50
Sequence (P51532 whole entry): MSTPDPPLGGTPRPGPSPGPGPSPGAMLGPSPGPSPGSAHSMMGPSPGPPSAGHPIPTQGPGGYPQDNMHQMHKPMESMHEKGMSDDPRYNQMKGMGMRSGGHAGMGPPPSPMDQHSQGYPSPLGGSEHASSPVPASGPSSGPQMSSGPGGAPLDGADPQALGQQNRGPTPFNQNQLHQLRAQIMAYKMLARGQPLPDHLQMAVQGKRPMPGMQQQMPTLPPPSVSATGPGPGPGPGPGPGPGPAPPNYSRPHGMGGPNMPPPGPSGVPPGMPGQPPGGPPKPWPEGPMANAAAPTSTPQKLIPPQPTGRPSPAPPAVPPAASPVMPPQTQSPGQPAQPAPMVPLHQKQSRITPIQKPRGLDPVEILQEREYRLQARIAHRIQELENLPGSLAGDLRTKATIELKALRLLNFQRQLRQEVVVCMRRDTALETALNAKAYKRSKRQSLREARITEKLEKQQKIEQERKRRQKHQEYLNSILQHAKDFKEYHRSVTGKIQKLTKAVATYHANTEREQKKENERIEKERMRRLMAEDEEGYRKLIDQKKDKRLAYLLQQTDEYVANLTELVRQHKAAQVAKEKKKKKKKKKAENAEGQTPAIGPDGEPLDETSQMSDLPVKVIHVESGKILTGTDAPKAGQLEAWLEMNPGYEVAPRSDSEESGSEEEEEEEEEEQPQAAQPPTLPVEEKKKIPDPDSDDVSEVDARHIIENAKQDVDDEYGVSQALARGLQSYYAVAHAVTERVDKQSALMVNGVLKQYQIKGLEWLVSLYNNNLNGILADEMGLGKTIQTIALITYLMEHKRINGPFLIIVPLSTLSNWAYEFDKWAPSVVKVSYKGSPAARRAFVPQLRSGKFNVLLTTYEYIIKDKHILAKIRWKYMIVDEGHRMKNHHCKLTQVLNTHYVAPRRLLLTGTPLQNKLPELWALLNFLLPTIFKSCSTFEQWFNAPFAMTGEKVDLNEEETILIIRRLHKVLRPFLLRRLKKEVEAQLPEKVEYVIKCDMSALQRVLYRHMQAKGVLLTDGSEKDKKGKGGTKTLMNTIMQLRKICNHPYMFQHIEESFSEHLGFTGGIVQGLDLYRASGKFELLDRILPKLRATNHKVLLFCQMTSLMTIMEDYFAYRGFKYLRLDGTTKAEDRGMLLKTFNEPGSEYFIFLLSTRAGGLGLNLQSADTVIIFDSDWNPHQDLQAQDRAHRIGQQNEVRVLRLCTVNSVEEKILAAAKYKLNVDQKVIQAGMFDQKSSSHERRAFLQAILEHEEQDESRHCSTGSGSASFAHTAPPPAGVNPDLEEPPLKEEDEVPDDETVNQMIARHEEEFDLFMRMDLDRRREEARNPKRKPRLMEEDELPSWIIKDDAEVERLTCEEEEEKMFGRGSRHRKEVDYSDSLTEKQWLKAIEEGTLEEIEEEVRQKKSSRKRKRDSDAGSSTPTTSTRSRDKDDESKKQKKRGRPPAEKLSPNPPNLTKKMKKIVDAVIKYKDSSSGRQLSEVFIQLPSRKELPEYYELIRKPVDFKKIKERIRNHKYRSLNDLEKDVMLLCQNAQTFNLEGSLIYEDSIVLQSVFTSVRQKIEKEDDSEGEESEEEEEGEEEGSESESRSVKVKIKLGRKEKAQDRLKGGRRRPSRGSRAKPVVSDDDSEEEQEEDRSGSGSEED
MEASUREMENT TYPE: DC50

Fill in reported DC50 for this entry: Cn1c(=O)n(C2CCC(=O)NC2=O)c2ccc(CCCN3CCC(c4nccc(N5C6CCC5CN(c5cc(-c7ccccc7O)nnc5N)C6)n4)CC3)cc21 (centres unmarked) [I-278] < 100 nM

Answer with the recorded DC50 for the molecule listed here: Cc1ncsc1-c1ccc(CNC(=O)[C@@H]2C[C@@H](O)CN2C(=O)[C@@H](NC(=O)C23CCC(CN4CCC(c5cnc(N6C7CCC6CN(c6cc(-c8ccccc8O)nnc6N)C7)nc5)CC4)(CC2)CC3)C(C)(C)C)cc1 [I-425] 100 to 500 nM

Tell me DC50 reported for Cc1ncsc1-c1ccc(CNC(=O)[C@@H]2C[C@@H](O)CN2C(=O)[C@@H](NC(=O)C2CCC(N3CCC(n4cc(-c5cc(-c6ccccc6O)nnc5N)cn4)CC3)CC2)C(C)(C)C)cc1 (some centres unmarked) [I-483] > 1000 nM

Find the measured DC50 of Cc1ncsc1-c1ccc(CNC(=O)[C@@H]2C[C@@H](O)CN2C(=O)[C@@H](NC(=O)C2(F)CC2)C2CCC(N(C)CCCc3cnc(N4C5CCC4CN(c4cc(-c6ccccc6O)nnc4N)C5)nc3)CC2)cc1 (some centres unmarked) [I-518] and report it. 100 to 500 nM

Fill in DC50 for record Cc1ncsc1-c1ccc(CNC(=O)[C@@H]2C[C@@H](O)CN2C(=O)[C@@H](NC(=O)[C@H]2CC=C(c3cnc(N4C5CCC4CN(c4cc(-c6ccccc6O)nnc4N)C5)nc3)CC2)C(C)(C)C)cc1 [I-407] < 100 nM

Specify measured DC50 for Cc1ncsc1-c1ccc(CNC(=O)[C@@H]2C[C@@H](O)CN2C(=O)[C@@H](NC(=O)CN2CCC(c3cnc(N4CCN(c5cc(-c6ccccc6O)nnc5N)CC4)nc3)CC2)C(C)(C)C)cc1 [I-451] . 100 to 500 nM

Complete the entry with DC50 for Cc1ncsc1-c1ccc(CNC(=O)[C@@H]2C[C@@H](O)CN2C(=O)[C@@H](NC(=O)CN2CCN([C@H]3CC[C@@H](c4cnc(N5C6CCC5CN(c5cc(-c7ccccc7O)nnc5N)C6)nc4)CC3)CC2)C(C)(C)C)cc1 (single isomer, unassigned) [I-445] < 100 nM

Give the measured DC50 for Cc1ncsc1-c1ccc(CNC(=O)[C@@H]2C[C@@H](O)CN2C(=O)[C@@H](NC(=O)CCN2CCC(c3cnc(N4C5CCC4CN(c4cc(-c6ccccc6O)nnc4N)C5)nc3)CC2)C(C)(C)C)cc1 [I-449] 100 to 500 nM

Output measured DC50 for this item: Nc1nnc(-c2ccccc2O)cc1N1CC2CCC(C1)N2c1ncc(C2CCN(CCCCCCCCCNC(=O)COc3ccc4c(c3)CCCN4C(=O)CCl)CC2)cn1 [I-525] > 1000 nM

Give the measured DC50 for Cc1ncsc1-c1ccc(CNC(=O)[C@@H]2C[C@@H](N)CN2C(=O)[C@@H](NC(=O)CCCNCc2ccc(C#Cc3cc(NC(=O)Nc4cc(F)ncc4CO)ccn3)cc2)C(C)(C)C)cc1 [I-492] > 1000 nM

Provide DC50 value for the following molecule: Cc1ncsc1-c1ccc(CNC(=O)[C@@H]2C[C@@H](O)CN2C(=O)C(N(C)C(=O)C[C@H]2CC[C@H](N3CCC(c4cnc(N5C6CCC5CN(c5cc(-c7ccccc7O)nnc5N)C6)nc4)CC3)CC2)C(C)(C)C)cc1 (some centres unmarked) [I-388] < 100 nM

----------
biological target: SMARCA2 (Homo sapiens); assay: MSD SMARCA2 degradation in A549 cell line; format: cell-based; conditions: A549, A549 cells, 24 h
Sequence (P51531 whole entry): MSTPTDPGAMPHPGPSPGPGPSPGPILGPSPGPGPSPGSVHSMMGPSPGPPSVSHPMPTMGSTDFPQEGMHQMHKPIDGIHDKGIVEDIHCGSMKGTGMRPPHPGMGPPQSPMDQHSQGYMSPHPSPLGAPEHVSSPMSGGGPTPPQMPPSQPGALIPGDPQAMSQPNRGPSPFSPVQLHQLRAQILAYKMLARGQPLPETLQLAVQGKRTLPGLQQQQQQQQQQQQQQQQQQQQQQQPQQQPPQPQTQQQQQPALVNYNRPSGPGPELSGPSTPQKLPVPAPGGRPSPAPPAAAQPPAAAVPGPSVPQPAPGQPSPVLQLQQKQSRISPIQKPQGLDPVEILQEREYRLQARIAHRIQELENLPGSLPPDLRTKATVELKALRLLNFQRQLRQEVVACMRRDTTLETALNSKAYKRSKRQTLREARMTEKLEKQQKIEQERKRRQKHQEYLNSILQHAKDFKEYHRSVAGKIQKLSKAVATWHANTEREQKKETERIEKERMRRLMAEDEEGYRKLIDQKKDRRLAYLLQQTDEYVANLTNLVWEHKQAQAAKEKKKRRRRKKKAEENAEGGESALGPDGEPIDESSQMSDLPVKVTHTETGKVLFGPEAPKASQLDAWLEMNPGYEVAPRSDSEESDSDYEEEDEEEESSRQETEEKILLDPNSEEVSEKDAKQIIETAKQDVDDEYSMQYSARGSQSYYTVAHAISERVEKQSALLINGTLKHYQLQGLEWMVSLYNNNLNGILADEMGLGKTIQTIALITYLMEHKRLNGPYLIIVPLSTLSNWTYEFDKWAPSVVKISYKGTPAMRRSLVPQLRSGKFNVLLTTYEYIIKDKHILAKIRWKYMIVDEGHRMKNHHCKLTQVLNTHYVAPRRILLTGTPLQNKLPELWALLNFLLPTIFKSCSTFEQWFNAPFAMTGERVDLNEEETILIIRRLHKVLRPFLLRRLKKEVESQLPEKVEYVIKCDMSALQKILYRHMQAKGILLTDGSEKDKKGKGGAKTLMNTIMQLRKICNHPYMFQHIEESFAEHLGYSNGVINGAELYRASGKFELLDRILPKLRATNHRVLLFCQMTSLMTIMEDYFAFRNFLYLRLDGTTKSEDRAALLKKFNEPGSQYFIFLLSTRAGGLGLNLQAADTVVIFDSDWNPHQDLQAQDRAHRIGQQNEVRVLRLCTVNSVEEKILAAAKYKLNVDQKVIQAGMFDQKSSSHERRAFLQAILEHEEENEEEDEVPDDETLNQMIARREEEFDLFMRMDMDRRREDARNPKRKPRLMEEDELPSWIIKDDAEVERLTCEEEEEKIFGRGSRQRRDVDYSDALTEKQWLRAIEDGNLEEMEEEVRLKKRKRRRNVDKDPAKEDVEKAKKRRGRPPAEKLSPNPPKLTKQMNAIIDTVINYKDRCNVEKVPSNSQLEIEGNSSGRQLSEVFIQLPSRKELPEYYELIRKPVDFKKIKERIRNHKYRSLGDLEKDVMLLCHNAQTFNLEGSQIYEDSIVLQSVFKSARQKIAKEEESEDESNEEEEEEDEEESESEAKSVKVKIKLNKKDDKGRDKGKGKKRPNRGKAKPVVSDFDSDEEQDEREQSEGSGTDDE
I'd be grateful if you could share measured Dmax for these entries.

Write Dmax of Cn1c(=O)n(C2CCC(=O)NC2=O)c2ccc([C@H]3CC[C@H](N4CCC(c5cnc(N6C7CCC6CN(c6cc(-c8ccccc8O)nnc6N)C7)nc5)CC4)CC3)cc21 (stereo partly shown) ; system used: SMARCA2 (Homo sapiens) > 90%

Write down measured Dmax (SMARCA2 (Homo sapiens)) for this compound. COc1ccccc1-c1cc(N2CC3CCC(C2)N3c2ncc([C@H]3CC[C@@H](CC(=O)N[C@H](C(=O)N4C[C@H](O)C[C@H]4C(=O)NCc4ccc(-c5scnc5C)cc4)C(C)(C)C)CC3)cn2)c(N)nn1 > 90%

For SMARCA2 (Homo sapiens), give the measured Dmax of the entry Cc1cc(CC(=O)N[C@H](C(=O)N2C[C@H](O)C[C@H]2C(=O)NCc2ccc(-c3scnc3C)cc2)C(C)(C)C)ccc1-c1cnc(N2C3CCC2CN(c2cc(-c4ccccc4O)nnc2N)C3)nc1 > 90%

Please indicate recorded Dmax of Nc1nnc(-c2ccccc2O)cc1N1CC2CCC(C1)N2c1ncc(C2CCN(CCCCCCOc3ccc(Oc4ccc(N(Cc5ccccc5)C(=O)CCl)cc4)cc3)CC2)cn1 measured with SMARCA2 (Homo sapiens). < 50%

----------
target: SMARCA2 (Homo sapiens); assay: MSD SMARCA2 degradation in A549 cell line; format: cell-based; conditions: A549, A549 cells, 24 h
MEASUREMENT TYPE: Dmax

Please report Dmax with SMARCA2 (Homo sapiens) for item Cc1ncsc1-c1ccc(CNC(=O)[C@@H]2C[C@@H](O)CN2C(=O)[C@@H](NC(=O)[C@H]2CC[C@@H](N(C)Cc3cnc(N4C5CCC4CN(c4cc(-c6ccccc6O)nnc4N)C5)nc3)CC2)C(C)(C)C)cc1 [I-371] . > 90%

With SMARCA2 (Homo sapiens) as the test system, provide measured Dmax for this molecule: Cn1c(=O)n(C2CCC(=O)NC2=O)c2cccc(C3CCC(N4CCC(n5cc(-c6cc(-c7ccccc7O)nnc6N)cn5)CC4)CC3)c21 (stereo not shown) [I-321] > 90%

Specify the recorded Dmax for Cc1ncsc1-c1ccc(CNC(=O)[C@@H]2C[C@@H](O)CN2C(=O)[C@@H](NC(=O)COCCCc2cnc(N3C4CCC3CN(c3cc(-c5ccccc5O)nnc3N)C4)nc2)C(C)(C)C)cc1 [I-357] , system: SMARCA2 (Homo sapiens). > 90%

Please report the measured Dmax for COCC(=O)N1CCCc2cc(OCC(=O)NCCCN3CCC(c4cnc(N5C6CCC5CN(c5cc(-c7ccccc7O)nnc5N)C6)nc4)CC3)ccc21 [I-526] tested on SMARCA2 (Homo sapiens). < 50%

Fill: Dmax (SMARCA2 (Homo sapiens)) for this molecule Cn1c(=O)n(C2CCC(=O)NC2=O)c2ccc(CCCN3CCN(c4cnc(N5C6CCC5CN(c5cc(-c7ccccc7O)nnc5N)C6)nc4)CC3)cc21 (stereo not shown) [I-285] > 90%

Write Dmax of Cc1ncsc1-c1ccc(CNC(=O)[C@@H]2C[C@@H](O)CN2C(=O)[C@@H](NC(=O)[C@@H]2CC=C(c3cnc(N4C5CCC4CN(c4cc(-c6ccccc6O)nnc4N)C5)nc3)CC2)C(C)(C)C)cc1 [I-406] ; system used: SMARCA2 (Homo sapiens) > 90%

Under SMARCA2 (Homo sapiens), report Dmax for Cc1ncsc1-c1ccc(CNC(=O)[C@@H]2C[C@@H](O)CN2C(=O)[C@@H](NC(=O)[C@H]2CC3(C2)C[C@H](c2cnc(N4C5CCC4CN(c4cc(-c6ccccc6O)nnc4N)C5)nc2)C3)C(C)(C)C)cc1 (stereo partly shown) [I-368] > 90%

Check SMARCA2 (Homo sapiens) data and give Dmax for Cc1ncsc1-c1ccc(CNC(=O)[C@@H]2C[C@@H](O)CN2C(=O)[C@@H](NC(=O)[C@H]2C[C@@H](N3CCC(n4cc(-c5cc(-c6ccccc6O)nnc5N)cn4)CC3)C2)C(C)(C)C)cc1 [I-358] . 70 to 90%

Supply Dmax measured with SMARCA2 (Homo sapiens) for Cc1ncsc1-c1ccc(CNC(=O)[C@@H]2C[C@@H](O)CN2C(=O)[C@@H](NC(=O)[C@H]2CC[C@@H](c3cnc(N4C5CCC4CN(c4cc(-c6ccccc6O)nnc4N)C5)nc3C)CC2)C(C)(C)C)cc1 [I-440] . > 90%

Give Dmax; test system SMARCA2 (Homo sapiens); molecule Cc1ncsc1-c1ccc(CNC(=O)[C@@H]2C[C@@H](O)CN2C(=O)[C@@H](NC(=O)CCN2CCN(Cc3ccc(-c4cc(-c5ccccc5O)nnc4N)cc3)CC2)C(C)(C)C)cc1 [I-474] < 50%

Return reported Dmax for target or system SMARCA2 (Homo sapiens), item Cc1ncsc1-c1ccc(CNC(=O)[C@@H]2C[C@@H](O)CN2C(=O)[C@@H](NC(=O)C23CCC(CN(C)Cc4cnc(N5C6CCC5CN(c5cc(-c7ccccc7O)nnc5N)C6)nc4)(CC2)CC3)C(C)(C)C)cc1 [I-429] . 70 to 90%

System SMARCA2 (Homo sapiens). Read-out Dmax. Item Cc1ncsc1-c1ccc(CNC(=O)[C@@H]2C[C@@H](O)CN2C(=O)[C@@H](NC(=O)[C@H]2CC[C@@H](c3cnc(N4C5CCC4CN(c4cc(-c6ccccc6O)nnc4N)C5)nc3)CC2)C(C)(C)C)cc1 [I-336] . Report value. > 90%

Quote SMARCA2 (Homo sapiens) Dmax for entry Cc1ncsc1-c1ccc(CNC(=O)[C@@H]2C[C@@H](O)CN2C(=O)[C@@H](NC(=O)[C@H]2CC[C@@H](CN3CCC(n4cc(-c5cc(-c6ccccc6O)nnc5N)cn4)CC3)CC2)C(C)(C)C)cc1 [I-402] . 70 to 90%
